test system: SMN2 Splicing D7 (SMN Δ7 transcript); assay: SMN Quantitative Splicing Assay (qPCR); type: cell-based, human; settings: SMA patient fibroblasts (GM03813), 24 h, 2.5 µM to 0.6 nM
pIC50: −log10 of the molar value.
MEASURED_QUANTITY: pIC50

CN(c1cnc(-c2cc3ccn(C)c(=O)c3cc2O)nn1)C1CC2CC(F)(F)C(C1)N2 (stereo not shown) [Compound 142] :: 7.30 to 7.80

Please list pIC50 recorded for the compound CN(c1cnc(-c2cc3ccn(C)c(=O)c3cc2O)nn1)C1CC2CC(F)(F)C(C1)N2 (stereo not shown) [Compound 141]
6.30 to 7.00

Please list pIC50 recorded for the compound CN(c1cnc(-c2cc3nccnc3cc2O)nn1)[C@@H]1CC2CC[C@H](N2)[C@@H]1F [Compound 57]
6.30 to 7.00

Please list pIC50 recorded for the compound CN(c1cnc(-c2cc3ncn(C)c(=O)c3cc2O)nn1)C1CC2CC(F)(F)C(C1)N2 (stereo not shown) [Compound 144]
7.82 to 11.00

Please list pIC50 recorded for the compound CN(c1cnc(-c2cc3cnn(C)c(=O)c3cc2O)nn1)C1CC2CCCC(N2)C1F (stereo not shown) [Compound 132]
7.30 to 7.80

Please list pIC50 recorded for the compound CN(c1cnc(-c2cc3ncn(C)c(=O)c3cc2O)nn1)C1CC2CC(F)(F)C(C1)N2 (stereo not shown) [Compound 143]
6.30 to 7.00

Please list pIC50 recorded for the compound CN(c1cnc(-c2cc3cnn(C)c(=O)c3cc2O)nn1)C1CC2CCCC(N2)C1F (stereo not shown) [Compound 131]
7.82 to 11.00

----------
test system: SMN2 Splicing D7 (SMN Δ7 transcript); experiment: SMN Quantitative Splicing Assay (qPCR); format: cell-based, human; conditions: Homo sapiens, Fibroblast, 24 h, SMA patient fibroblasts (GM03813), 2.5 µM to 0.6 nM
# IC50 values compiled below

Cc1cc(=O)c2cc(-c3ncc(N(C)[C@@H]4C[C@H]5CC[C@H](N5)[C@@H]4F)nn3)c(O)cc2o1 (single isomer, unassigned) [Compound 1A] :: 16 to 50 nM

Please list IC50 recorded for the compound Cc1cnc2cc(O)c(-c3ncc(N(C)[C@H]4CC5CCCC(N5)[C@H]4F)nn3)cc2n1 (stereo partly shown) [Compound 160]
101 to 500 nM

Please list IC50 recorded for the compound CN(c1cnc(-c2cc3cnn(C)c(=O)c3cc2O)nn1)[C@H]1C[C@]2(C)CCC(N2)[C@H]1F [Compound 185]
0.01 to 15 nM

Please list IC50 recorded for the compound Cc1cnc2cc(-c3ncc(N(C)[C@H]4C[C@@H]5CCC(N5)[C@H]4F)nn3)c(O)cc2n1 (single isomer, unassigned) [Compound 54]
16 to 50 nM

----------
tested on: SMN2 Splicing D7 (SMN Δ7 transcript); assay: SMN Quantitative Splicing Assay (qPCR); assay type: cell-based, human; settings: Homo sapiens, Fibroblast, 24 h, SMA patient fibroblasts (GM03813), 2.5 µM to 0.6 nM
# IC50 values compiled below

Recorded results for 6 compounds are shown here.
Cc1nc2cc(O)c(-c3ncc(N(C)[C@H]4C[C@@H]5CCC(N5)[C@H]4F)nn3)cc2nc1C :: 0.01 to 15 nM
Cc1cc(=O)c2cc(-c3ncc(N(C)[C@@H]4CC5CCCC(N5)[C@@H]4F)nn3)c(O)cc2o1 (stereo partly shown) :: 101 to 500 nM
CCn1cnc2cc(-c3ncc(N(C)C4CC5CCC(N5)[C@H]4F)nn3)c(O)cc2c1=O (stereo partly shown) :: 0.01 to 15 nM
Cc1nc2cc(-c3ncc(N(C)[C@H]4CC5CC[C@@H](N5)[C@H]4F)nn3)c(O)cc2c(=O)n1C :: 0.01 to 15 nM
CN(c1cnc(-c2cc3c(F)cn(C)c(=O)c3cc2O)nn1)C1CC2CCCC(N2)[C@H]1F (stereo partly shown) :: 0.01 to 15 nM
CN(c1cnc(-c2cc3cncnc3cc2O)nn1)C1CC2CCC(N2)[C@H]1F (stereo partly shown) :: 51 to 100 nM

Then there is this compound:
Print SMN2 Splicing D7 (SMN Δ7 transcript) IC50 for CN(c1cnc(-c2cc3ncccc3cc2O)nn1)[C@H]1C[C@@H]2CCC(N2)[C@H]1F .
16 to 50 nM
